Test system: Mycosphaerella graminicola; Anamorph: Septoria tritici; Bayer Code SEPTTR
TEST: Leaf blotch of wheat, foliar fungicide treatment, one day protectant (1DP) or three day curative (3DC)
Type: in vivo, Septoria tritici on wheat plants (variety Yuma)
CONDITION_SUMMARY: Zymoseptoria tritici, 24 h, one day protectant (1DP), 100 ppm, rating of percent disease control, read-out: SEPTTR 1DP 100 ppm
PROPERTY_MEASURED: pest or weed control at 100 ppm

[[record]]
smiles_text = "O=C(Nc1ccccc1F)Nc1nc(OCc2cccs2)ncc1F"
result = "0 to 25%"

[[record]]
smiles_text = "COc1ccc(COc2ncc(F)c(NCO)n2)cc1F"
result = "76 to 100%"

[[record]]
smiles_text = "Cc1ccc(COc2ncc(F)c(NSc3ccccc3[N+](=O)[O-])n2)cc1"
result = "76 to 100%"

[[record]]
smiles_text = "Cc1ccc(COc2ncc(F)c(NC(=S)Nc3ccccc3F)n2)cc1"
result = "76 to 100%"


Now consider a different compound.
Query: Reported pest or weed control at 100 ppm for `O=C(Nc1nc(OCc2cccc(F)c2)ncc1F)OCc1ccccc1` : what is it?
Result: 76 to 100%

====

System: Mycosphaerella graminicola; Anamorph: Septoria tritici; Bayer Code SEPTTR
TEST: Leaf blotch of wheat, foliar fungicide treatment, one day protectant (1DP) or three day curative (3DC)
Assay type: in vivo, Septoria tritici on wheat plants (variety Yuma)
CONDITION_SUMMARY: Zymoseptoria tritici, 24 h, one day protectant (1DP), 100 ppm, rating of percent disease control, read-out: SEPTTR 1DP 100 ppm
PROPERTY_MEASURED: pest or weed control at 100 ppm

Field: example entries. Status: answers known.
[[record]]
compound = "COc1cccc(COc2ncc(F)c(/N=C3\\CCCCN3C)n2)c1"
assay_system = "Mycosphaerella graminicola; Anamorph: Septoria tritici; Bayer Code SEPTTR"
property_measured = "pest or weed control at 100 ppm"
result = "76 to 100%"

[[record]]
compound = "CCOCNc1nc(OCc2ccccc2OC)ncc1F"
assay_system = "Mycosphaerella graminicola; Anamorph: Septoria tritici; Bayer Code SEPTTR"
property_measured = "pest or weed control at 100 ppm"
result = "76 to 100%"

[[record]]
compound = "Nc1nc(Oc2ccc(Cl)nc2)ncc1F"
assay_system = "Mycosphaerella graminicola; Anamorph: Septoria tritici; Bayer Code SEPTTR"
property_measured = "pest or weed control at 100 ppm"
result = "0 to 25%"

[[record]]
compound = "O=[N+]([O-])c1ccccc1SNc1nc(OCc2cc(F)c(F)c(F)c2)ncc1F"
assay_system = "Mycosphaerella graminicola; Anamorph: Septoria tritici; Bayer Code SEPTTR"
property_measured = "pest or weed control at 100 ppm"
result = "76 to 100%"

[[record]]
compound = "COc1cc(F)cc(F)c1COc1ncc(F)c(N)n1"
assay_system = "Mycosphaerella graminicola; Anamorph: Septoria tritici; Bayer Code SEPTTR"
property_measured = "pest or weed control at 100 ppm"
result = "76 to 100%"

[[record]]
compound = "O=[N+]([O-])c1ccccc1SNc1nc(OCc2cccc(C(F)(F)F)c2F)ncc1F"
assay_system = "Mycosphaerella graminicola; Anamorph: Septoria tritici; Bayer Code SEPTTR"
property_measured = "pest or weed control at 100 ppm"
result = "76 to 100%"


Report pest or weed control at 100 ppm for every entry below.
1. COc1cccc(COc2ncc(F)c(NN3CCOCC3)n2)c1
2. CCNN(CC)c1nc(OCc2ccc(F)cc2)ncc1F
3. CCCNC(=O)Nc1nc(OCc2ccc(C)cc2)ncc1F
4. Nc1nc(OCc2ccc3ccccc3n2)ncc1F

Result:
1. 0 to 25%
2. 0 to 25%
3. 0 to 25%
4. 76 to 100%
